target.desc: serotonin 1A (5-HT1A) receptor (Rattus norvegicus, UniProt P19327)
Sequence (P19327 1-422): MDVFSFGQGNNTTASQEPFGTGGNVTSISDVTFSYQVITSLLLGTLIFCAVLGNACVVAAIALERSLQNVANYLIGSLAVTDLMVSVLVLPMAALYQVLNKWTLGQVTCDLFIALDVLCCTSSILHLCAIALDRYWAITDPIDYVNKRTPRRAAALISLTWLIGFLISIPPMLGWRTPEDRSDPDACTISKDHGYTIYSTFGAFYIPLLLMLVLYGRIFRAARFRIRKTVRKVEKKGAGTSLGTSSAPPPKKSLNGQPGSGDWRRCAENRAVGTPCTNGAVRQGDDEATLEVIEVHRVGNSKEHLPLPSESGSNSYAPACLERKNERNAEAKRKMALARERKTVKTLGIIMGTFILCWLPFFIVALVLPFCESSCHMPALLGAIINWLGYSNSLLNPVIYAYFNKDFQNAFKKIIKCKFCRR
Binarize Ki at 10 nM; below is Fulfilled, at or above is Not fulfilled.

[Q] Consider CC(=O)NCc1ccc(CCN2CCC(c3noc4cc(F)ccc34)CC2)s1 [Example 119] . Does its Ki lie strictly below 10 nM?
[A] Not fulfilled

[Q] What about CC(=O)c1ccc(SCCCN2CCC(c3noc4cc(F)ccc34)CC2)s1 [Example 36] ?
[A] Fulfilled

[Q] How about this compound: CC(=O)NCc1sc(CCN2CCC(c3noc4cc(F)ccc34)CC2)cc1C [Example 151]
[A] Not fulfilled

[Q] Moving on to the next compound: CC(=O)Nc1ccc(SCCCN2CCC(c3noc4cc(F)ccc34)CC2)s1 [Example 40]
[A] Fulfilled

[Q] // next record CC(=O)NCCc1sc(CCN2CCC(c3noc4cc(F)ccc34)CC2)cc1Br [Example 159]
[A] Not fulfilled

[Q] What about CC(=O)NCc1ccc(SCCCN2CCC(c3noc4cc(F)ccc34)CC2)s1 [Example 93] ?
[A] Not fulfilled

[Q] Would you mind doing NCc1ccc(CCCCN2CCC(c3noc4cc(F)ccc34)CC2)s1 [Example 165] as well?
[A] Fulfilled

[Q] Follow-up item: CC(=O)NCc1ccc(CCCCN2CCC(c3noc4cc(F)ccc34)CC2)s1 [Example 108]
[A] Not fulfilled

[Q] Then CC(=O)NCc1cc(CCN2CCC(c3noc4cc(F)ccc34)CC2)c(C)s1 [Example 155] ?
[A] Not fulfilled

[Q] Also CC(=O)c1ccc(SCCCN2CCN(c3nsc4ccccc34)CC2)s1 [Example 21] , if possible.
[A] Fulfilled

[Q] // query: CC(=O)NCCc1ccc(CCN2CCC(c3noc4cc(F)ccc34)CC2)s1 [Example 158]
[A] Not fulfilled

[Q] Would you mind doing CC(=O)NCc1ccc(C(=O)CCCN2CCC(c3noc4cc(F)ccc34)CC2)s1 [Example 95] as well?
[A] Not fulfilled
